details: human, hek293, 0.1 µM;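 note: equilibrium dialysis of compound in HEK293 cell homogenate, free drug quantified by UPLC-MS/MS, Fu is the unbound fraction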
Assign class 1 to entries whose Fu meets or exceeds 0.7; assign class 0 to the rest.

Examples from the recorded data:
CC(=O)[C@H]1CC[C@H]2[C@@H]3CCC4=CC(=O)CC[C@]4(C)[C@H]3CC[C@]12C = class 0
CN(C)CCCN1c2ccccc2CCc2ccc(Cl)cc21 = class 0
CC[C@H](C)C(=O)O[C@H]1C[C@@H](C)C=C2C=C[C@H](C)[C@H](CC[C@@H]3C[C@@H](O)CC(=O)O3)[C@H]21 = class 0
COc1ccc2c(c1)[C@]13CCCC[C@@H]1[C@H](C2)N(C)CC3 = class 1

Field: next molecule
Hi team, for "CC(C)CN(C[C@@H](O)[C@H](Cc1ccccc1)NC(=O)O[C@H]1CCOC1)S(=O)(=O)c1ccc(N)cc1" , is the recorded Fu at or above 0.7?
class 1

The values you see were collected from ChEMBL document CHEMBL3232907.
